- System: Mus musculus
- experiment: Antiinflammatory activity in ip dosed mouse assessed as reduction PMA-induced ear edema
- Assay type: functional
measurement_type: ED50 (mg/kg)
Reply numerically in mg/kg, unit not repeated.

Data request: Give its ED50 value. Item: CC(C)=C[C@H]1C[C@H](C)[C@H]2CC[C@H](C)c3c(O[C@@H]4OC[C@@H](O)[C@H](O)[C@H]4O)c(O)c(C)c1c32 [PSEUDOPTEROSIN A]
Data returned: 10

Data request: Which ED50 is reported for this compound? CC(=O)O[C@@H]1[C@@H](O)[C@H](Oc2c(O)c(C)c3c4c2[C@@H](C)CC[C@@H]4[C@@H](C)C[C@@H]3C=C(C)C)OC[C@H]1O [PSEUDOPTEROSIN C]
Data returned: 10

Data request: Query: ED50; subject: CC(=O)O[C@H]1[C@H](Oc2c(O)c(C)c3c4c2[C@@H](C)CC[C@@H]4[C@@H](C)C[C@@H]3C=C(C)C)OC[C@@H](O)[C@@H]1O [PSEUDOPTEROSIN B]
Data returned: 10

Data request: Endpoint output: ED50 of CC(=O)O[C@@H]1CO[C@@H](Oc2c(O)c(C)c3c4c2[C@@H](C)CC[C@@H]4[C@@H](C)C[C@@H]3C=C(C)C)[C@H](O)[C@H]1O [PSEUDOPTEROSIN D] . Value?
Data returned: 10
